Source: patent US11318136B2

Target: chromogranin B (CGB) (Bos taurus, UniProt P23389)
Construct: from tissue; host or cells: secretory granules of bovine adrenal medulla
Sequence (P23389 21-646): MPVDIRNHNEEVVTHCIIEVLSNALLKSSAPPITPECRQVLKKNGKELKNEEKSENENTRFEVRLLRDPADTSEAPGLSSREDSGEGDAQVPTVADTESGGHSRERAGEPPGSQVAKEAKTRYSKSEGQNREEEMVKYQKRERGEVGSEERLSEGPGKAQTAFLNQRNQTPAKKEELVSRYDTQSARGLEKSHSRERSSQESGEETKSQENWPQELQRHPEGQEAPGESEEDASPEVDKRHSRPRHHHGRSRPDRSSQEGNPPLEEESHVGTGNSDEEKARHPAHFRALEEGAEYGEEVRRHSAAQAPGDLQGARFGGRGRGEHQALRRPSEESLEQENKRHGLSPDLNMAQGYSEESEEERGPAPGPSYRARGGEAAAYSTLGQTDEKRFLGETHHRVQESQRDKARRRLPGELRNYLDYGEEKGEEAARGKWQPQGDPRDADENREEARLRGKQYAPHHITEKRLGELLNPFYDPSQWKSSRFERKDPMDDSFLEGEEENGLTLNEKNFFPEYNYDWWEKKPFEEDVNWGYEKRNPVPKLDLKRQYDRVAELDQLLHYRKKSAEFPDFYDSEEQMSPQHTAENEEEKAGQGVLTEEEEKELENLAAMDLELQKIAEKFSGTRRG
Test: Metal-induced chromogranin B aggregation (turbidity)
Type: biochemical, bovine
Conditions: 1 μM compound; chromogranin B 0.005 mg/ml (0.06 μM); pH 7.4
RECORDED ENDPOINT: Fe2+-induced chromogranin B aggregation

O=c1c(O)c(-c2cc(O)c(O)c(O)c2)oc2cc(O)cc(O)c12    completely suppressed
COc1ccc(-c2cc(=O)c3c(OC)c(OC)c(OC)c(OC)c3o2)cc1    completely suppressed

---

Molecular target: secretogranin II (SgII) (Bos taurus)
Construct: from tissue; host or cells: secretory granules of bovine adrenal medulla
Sequence (P20616 31-613): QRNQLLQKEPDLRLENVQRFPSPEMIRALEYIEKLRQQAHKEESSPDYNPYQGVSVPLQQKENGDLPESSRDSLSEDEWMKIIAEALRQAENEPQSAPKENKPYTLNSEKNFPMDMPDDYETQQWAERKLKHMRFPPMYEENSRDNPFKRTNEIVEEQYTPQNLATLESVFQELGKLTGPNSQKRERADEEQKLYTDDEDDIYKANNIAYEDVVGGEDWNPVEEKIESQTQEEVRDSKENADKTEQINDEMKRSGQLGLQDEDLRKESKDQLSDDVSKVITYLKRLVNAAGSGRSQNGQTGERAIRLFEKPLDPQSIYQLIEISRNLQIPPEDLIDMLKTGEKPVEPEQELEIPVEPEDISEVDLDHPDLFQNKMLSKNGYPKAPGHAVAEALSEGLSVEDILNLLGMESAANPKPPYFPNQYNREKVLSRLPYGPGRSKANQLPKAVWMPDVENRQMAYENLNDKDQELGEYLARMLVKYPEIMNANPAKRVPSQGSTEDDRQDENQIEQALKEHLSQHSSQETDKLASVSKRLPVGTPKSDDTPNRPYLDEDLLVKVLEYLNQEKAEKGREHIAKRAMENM
Assay: Metal-induced secretogranin II aggregation (turbidity)
Type: biochemical, bovine
Conditions: 1 μM compound; secretogranin II 0.005 mg/ml (0.07 μM); pH 7.4
RECORDED ENDPOINT: Fe2+-induced secretogranin II aggregation

O=c1c(O)c(-c2ccc(O)c(O)c2)oc2cc(O)cc(O)c12 [quercetin]    completely suppressed
O=c1c(O)c(-c2ccc(O)c(O)c2)oc2cc(O)ccc12 [fisetin]    completely suppressed
Nc1ncnc2c1ncn2[C@@H]1O[C@H](CO)C[C@H]1O [cordycepin]    significantly suppressed
COc1cc2ncnc(Nc3cccc(Cl)c3)c2cc1OC [tyrphostin AG1478]    significantly suppressed
